Task for the reader: assign each of the following molecules its reported z-score.
- experimental protocol: modulators of S6 phosphorylation in cells, primary screen, cell-based, A549, cytoblot, luminescence, serum-stimulated (AID 1158);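 further: serum-stimulated A549 lung adenocarcinoma cells; signal is phosphorylated S6 detected by cytoblot immunostaining with HRP secondary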
- test context: A549 phospho-S6 cytoblot, 5 h, higher = more signal
Lab note: record the figure alone, no unit after it.

Qu. Data request, read-out z-score, for `O=C1O[C@H](c2ccccc2)[C@H](c2ccccc2)N2[C@H]1[C@@H](C(=O)N1CCN(c3ncccn3)CC1)[C@]1(C(=O)Nc3ccccc31)[C@H]2c1ccc(OCCO)cc1`
Ans. 2.11

Qu. Data request, read-out z-score, for `COc1ccc([Si](C)(C)[C@@H]2[C@@H](CC(=O)N(CCO)Cc3ccccc3)O[C@]3(C(=O)N(C)c4ccccc43)[C@H]2C)cc1`
Ans. 0.388

Qu. Data request, read-out z-score, for `NCCCCCNC(=O)[C@H]1C[C@H]2C(=O)NCC(=O)N2[C@H]1c1cccc(OCCO)c1`
Ans. 0.753

Qu. Data request, read-out z-score, for `C=CC(=C)C1=CCO[C@@H]1[C@H]1CCCN1S(=O)(=O)c1ccccc1[N+](=O)[O-]`
Ans. -0.031

Qu. Data request, read-out z-score, for `COc1ccc(C#Cc2ccc3c(c2)[C@]2(C(=O)N3)[C@H](C(=O)NC[C@H](O)c3ccccc3)[C@H]3C(=O)O[C@H](c4ccccc4)[C@H](c4ccccc4)N3[C@@H]2c2ccccc2OCCO)cc1`
Ans. -0.0009

Qu. Data request, read-out z-score, for COc1cc(C(O)C2C=CC3C(=O)N(c4ccccc4)C(=O)C3N2Nc2ccc(C#N)cc2)cc(OC)c1OC (configuration not stated)
Ans. -1.15

Qu. Data request, read-out z-score, for `COCCCNC(=O)[C@@]1(C)c2ccccc2C(=O)N(Cc2cc(C(F)(F)F)cc(C(F)(F)F)c2)[C@H]1c1ccc(CO)cc1`
Ans. -0.434

Qu. Data request, read-out z-score, for `CC(=CC1CCCCC1)[C@@H](NC(=O)c1ccc(C(F)(F)F)cc1)c1ccc(-c2ccccc2)cc1`
Ans. 0.299

Qu. Data request, read-out z-score, for O=C1C2C=CC(C(O)c3ccc(-c4ccccc4)s3)N(n3cnnc3)C2C(=O)N1Cc1ccccc1 (configuration not stated)
Ans. 0.0424

Qu. Data request, read-out z-score, for `COC(=O)[C@@]1(Cc2ccc(OC)cc2)[C@H]2c3cc(C(=O)N4CCCC4)n(CCc4c[nH]c5cc(F)ccc45)c3C[C@H]2CN1C(=O)c1ccccc1`
Ans. -0.174

Qu. Data request, read-out z-score, for COC(=O)c1ccc(OC)c(/C=C\CC(OC(C)=O)c2ccccc2)c1 (configuration not stated)
Ans. -0.0878

Qu. Data request, read-out z-score, for Cc1cc(C)cc(N2C(=O)CS(=O)(=O)C2c2cccc([N+](=O)[O-])c2)c1 (configuration not stated)
Ans. 1.48

---

- experimental protocol: A549 cell viability effects, profiling panel, calcein-AM fluorescence, 48 h, basal (AID 1162); further: test concentration not given here
- test context: higher = more signal
parameter: z-score
Lab note: record the figure alone, no unit after it.

Qu. Data request, read-out z-score, for `Cc1ccc(S[C@]2(C(=O)NC3CC3)CC(=O)N(C3CCCCC3)[C@@H]2c2ccc(CO)cc2I)cc1`
Ans. 1.07

Qu. Data request, read-out z-score, for `CC(C)N1C(=O)[C@@]2(c3ccc([N+](=O)[O-])cc3)CC(=O)N(CC34CC5CC(CC(C5)C3)C4)[C@@H]2c2ccc(CO)cc21`
Ans. 0.192

Qu. Data request, read-out z-score, for `COC(=O)[C@@]1(Cc2ccccc2N=[N+]=[N-])COC(c2ccc(OCCCO)cc2)=N1`
Ans. -0.851

Qu. Data request, read-out z-score, for `COCCOC(=O)N1C(=O)[C@@]2(c3cc(C#CCC(C(=O)OC)C(=O)OC)ccc31)[C@H](c1ccc(O)cc1)N1[C@H](c3ccccc3)[C@H](c3ccccc3)OC(=O)[C@H]1[C@@H]2C(N)=O`
Ans. -0.78

Qu. Data request, read-out z-score, for COc1cc(C(O)C2C=CC3C(=O)N(c4ccccc4)C(=O)C3N2Nc2ccc(C#N)cc2)cc(OC)c1OC (stereo unspecified)
Ans. -1.26

Qu. Data request, read-out z-score, for `O=c1oc(-c2ccccc2)nc2cc(Br)ccc12`
Ans. -0.423

Qu. Data request, read-out z-score, for C[C@H]1NC(=O)[C@H](Cc2ccccc2)NC(=O)[C@@]23C(=O)N[C@@H](Cc4ccccc4)C2[C@H](C)[C@@]2(C)O[C@H]2C3/C=C/C/C=C\CNC1=O (stereo partly specified)
Ans. 1.1

Qu. Data request, read-out z-score, for `COc1ccc(CCN2C(=O)[C@@]3(Cc4ccccc42)c2ccccc2C(=O)N(Cc2ccccc2Cl)[C@H]3c2ccc(CO)cc2)cc1`
Ans. 0.517

Qu. Data request, read-out z-score, for O=C1C2C=CC(C(O)c3ccc(B(O)O)cc3)N(Nc3ccccc3)C2C(=O)N1c1ccccc1 (stereo unspecified)
Ans. -1.52

Qu. Data request, read-out z-score, for `COc1ccc([Si](C)(C)[C@H]2[C@H](CCn3cc([C@H](O)c4ccccc4)nn3)O[C@@]3(C(=O)N(Cc4cccc(N5CCC5=O)c4)c4ccccc43)[C@@H]2C)cc1`
Ans. 0.692

Qu. Data request, read-out z-score, for `CN(C)CCCNC(=O)[C@@]1(Cc2ccccc2I)c2ccccc2C(=O)N(Cc2ccccc2C(F)(F)F)[C@H]1c1ccc(CO)cc1`
Ans. -2.7

Qu. Data request, read-out z-score, for [N-]=[N+]=NCc1ccccc1C[C@]1(C(=O)NCC(O)CO)N=C(c2ccc(OCCCO)cc2)O[C@H]1c1ccccc1N=[N+]=[N-] (stereo partly specified)
Ans. -0.13

Qu. Data request, read-out z-score, for `COC(=O)[C@@]1(Cc2ccc(OC)cc2)[C@H]2c3cc(C(=O)N4CCCC4)n(Cc4cc(F)cc5c4OCOC5)c3C[C@H]2CN1C(=O)c1ccccc1`
Ans. -1.67

Qu. Data request, read-out z-score, for CCCCC(CC)C(O)C1C=CC2C(=O)N(c3ccccc3)C(=O)C2N1Nc1ccccc1 (stereo unspecified)
Ans. -0.5

Qu. Data request, read-out z-score, for `O=C1O[C@@H](c2ccccc2)[C@@H](c2ccccc2)N2[C@@H](c3ccc(OCCO)cc3)[C@]3(C(=O)Nc4ccccc43)[C@@H](C(=O)Nc3nc4ccccc4s3)[C@H]12`
Ans. -0.328

Qu. Data request, read-out z-score, for `CC(C)Cc1ccc(CN2CC[C@@H](NS(=O)(=O)c3ccccc3)C2)cc1`
Ans. -0.977

Qu. Data request, read-out z-score, for `COCC(=C=CC[C@@H](O)c1ccc(CO)o1)CCO`
Ans. 2.82

Qu. Data request, read-out z-score, for CN1C(=O)C2C(C1=O)C1C=C(CCCO)C2C(c2cccs2)N1C (stereo unspecified)
Ans. 0.0141

Qu. Data request, read-out z-score, for `CCCNC(=O)[C@@H]1c2ccccc2C(=O)N(Cc2ccccc2)[C@H]1c1ccc(CO)cc1`
Ans. 0.756

Qu. Data request, read-out z-score, for `CC(=O)NCCCC[C@@H]1NC(=O)[C@H]2C[C@@H](C(=O)NCCCCCC[N+](C)(C)C)[C@@H](c3cccc(OCCO)c3)N2C1=O`
Ans. -0.144

Qu. Data request, read-out z-score, for `C=C[C@H](C)[C@@H](O)c1ccc(O)c2ccccc12`
Ans. -0.573

---

Task for the reader: assign each of the following compounds its reported composite z-score.
- Tested on: Noggin (protein binding on small-molecule microarray)
- experimental protocol: Noggin binders on small-molecule microarray, primary screen, biochemical, 635/667 nm fluorescence (AID 1095);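 further: score merges 667 nm feature fluorescence with signal to noise over triplicate slides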
- test context: 635 nm fluorescence, higher = more signal
Lab note: record the figure alone, no unit after it.

Qu. Data request, read-out composite z-score, for `C[C@]1(C(=O)NCc2ccccc2)c2ccccc2C(=O)N(Cc2cc(F)cc(C(F)(F)F)c2)[C@H]1c1ccc(CO)cc1`
Ans. -1.67

Qu. Data request, read-out composite z-score, for `Cc1ccc([C@H]2[C@H](C(=O)O)[C@H](Sc3ccccc3)[C@@H](C(C)C)N2S(=O)(=O)c2ccc(C)cc2)cc1`
Ans. 0.0176

Qu. Data request, read-out composite z-score, for COc1ccc(C(O)C2C=CC3C(=O)NC(=O)C3N2Nc2ccccn2)cc1OCc1ccccc1 (configuration not stated)
Ans. 0.15

Qu. Data request, read-out composite z-score, for `[N-]=[N+]=NCc1ccccc1[C@@H]1OC(c2ccc(OCCCO)cc2)=N[C@]1(Cc1ccccc1)C(=O)N1CCCCC1`
Ans. 1.46

Qu. Data request, read-out composite z-score, for `COc1ccc(CCNC(=O)[C@@H]2c3ccccc3C(=O)N(Cc3ccc(OC(F)(F)F)cc3)[C@H]2c2ccc(CO)cc2)cc1`
Ans. 0.54

Qu. Data request, read-out composite z-score, for `COCCOC(=O)N1C(=O)[C@@]2(c3cc(C#CCC(C(=O)OC)C(=O)OC)ccc31)[C@H](c1ccc(O)cc1)N1[C@H](c3ccccc3)[C@H](c3ccccc3)OC(=O)[C@H]1[C@@H]2C(N)=O`
Ans. 0.604

Qu. Data request, read-out composite z-score, for `COC(=O)[C@@]1(Cc2ccc(OC)cc2)[C@H]2c3cc(C(=O)N(C)C)n(Cc4c(OC)[nH]cc(C)c4=O)c3C[C@H]2CN1C(=O)c1ccccc1`
Ans. -0.0598

Origin of values: PubChem BioAssay
